Give measured kon for each item. Keep answers brief.
# Experimental Target: T1, HLA-A2/MAGE-A4p230-239 complex (human)
# T1 construct: also called HLA-A2/MAGEp230-239
# Assay Summary: SPR Biacore T200, antibody captured by anti-human Fc, pMHC complex as analyte, 25 C, 1:1 Langmuir fit
Numbers only, in M⁻¹ s⁻¹.

Would you mind giving kon for every binder in the list below?
1. Molecule K (antibody, V domains shown, also called 057D03 IgG antibody) VH: AQLVESGGGLVQPGGSLRLSCAASAYFSFKAMSWVRQAPGKGLEWVGSISPSGGSTYYNDNVLGRFTISRDNSKNTLYLQMNSLRAEDTAVYYCAKDVGFFDEWGQGTLVTVSS VL: DIQMTQSPSSLSASVGDRVTITCRASQSISSYLAWYQQKPGKAPKLLIYDASIRDIGVPSRFSGSGSGTDFTLTISSLQPEDFATYYCQQYSSYPYTFGQGTKLEIK
2. Molecule I (antibody, V domains shown, also called 007D10 IgG antibody) VH: YPQLVESGGGLVKPGGSLRLSCAARYPFTRLDMSWVRQAPGKGLEWVGSISPKGGSTYYNDNVLGRFTISRDNSKNTLYLQMNSLRAEDTAVYYCARDWGFFDNWGQGTLVTVSS VL: AIQMTQSPSSLSASVGDRVTITCRASQSISNYLAWYQQKPGKAPKLLIYNASHPEYDVPSRFSGSGSGTDFTLTISSLQPEDFATYYCQQYSSHPYTFGQGTKLEIK

stdout:
2.6e+06
25500

Would you mind giving kon for every binder in the list below?
1. Molecule H (antibody, V domains shown, also called 007A09 IgG antibody) VH: YVQLVESGGGLVKPGGSLRLSCAAPLPFTGLDMSWVRQAPGKGLEWVGSISPKGGSTYYNDNVLGRFTISRDNSKNTLYLQMNSLRAEDTAVYYCARDWGFFDLWGQGTLVTVSS VL: AIQMTQSPSSLSASVGDRVTITCRASQSISNYLAWYQQKPGKAPKLLIYDANAHENDVPSRFSGSGSGTDFTLTISSLQPEDFATYYCQQYSSHPYTFGQGTKLEIK
2. Molecule J (antibody, V domains shown, also called 057B04 IgG antibody) VH: TQQLVESGGGLVQPGGSLRLSCAASGFSFSFDTMSWVRQAPGKGLEWVGSISPSGGSTYYNDNVLGRFTISRDNSKNTLYLQMNSLRAEDTAVYYCARDHGYFDMWGQGTLVTVSS VL: DIQMTQSPSSLSASVGDRVTITCRASQSISSYLAWYQQKPGKAPKLLIYDASWLELGVPSRFSGSGSGTDFTLTISSLQPEDFATYYCQQYSSYPYTFGQGTKLEIK

stdout:
1. 247000
2. 1.06e+06
